Molecular target: ER α-glucosidase GANAB (from Pompe disease Fibroblast lysates) (Homo sapiens)
Construct: Cellular homogenates of Pompe fibroblasts (1 mg mL^−1) were used as protein source for GANAB; endogenous in cells; host or cells: Pompe disease fibroblasts (homogenate)
Sequence (Q14697 29-944): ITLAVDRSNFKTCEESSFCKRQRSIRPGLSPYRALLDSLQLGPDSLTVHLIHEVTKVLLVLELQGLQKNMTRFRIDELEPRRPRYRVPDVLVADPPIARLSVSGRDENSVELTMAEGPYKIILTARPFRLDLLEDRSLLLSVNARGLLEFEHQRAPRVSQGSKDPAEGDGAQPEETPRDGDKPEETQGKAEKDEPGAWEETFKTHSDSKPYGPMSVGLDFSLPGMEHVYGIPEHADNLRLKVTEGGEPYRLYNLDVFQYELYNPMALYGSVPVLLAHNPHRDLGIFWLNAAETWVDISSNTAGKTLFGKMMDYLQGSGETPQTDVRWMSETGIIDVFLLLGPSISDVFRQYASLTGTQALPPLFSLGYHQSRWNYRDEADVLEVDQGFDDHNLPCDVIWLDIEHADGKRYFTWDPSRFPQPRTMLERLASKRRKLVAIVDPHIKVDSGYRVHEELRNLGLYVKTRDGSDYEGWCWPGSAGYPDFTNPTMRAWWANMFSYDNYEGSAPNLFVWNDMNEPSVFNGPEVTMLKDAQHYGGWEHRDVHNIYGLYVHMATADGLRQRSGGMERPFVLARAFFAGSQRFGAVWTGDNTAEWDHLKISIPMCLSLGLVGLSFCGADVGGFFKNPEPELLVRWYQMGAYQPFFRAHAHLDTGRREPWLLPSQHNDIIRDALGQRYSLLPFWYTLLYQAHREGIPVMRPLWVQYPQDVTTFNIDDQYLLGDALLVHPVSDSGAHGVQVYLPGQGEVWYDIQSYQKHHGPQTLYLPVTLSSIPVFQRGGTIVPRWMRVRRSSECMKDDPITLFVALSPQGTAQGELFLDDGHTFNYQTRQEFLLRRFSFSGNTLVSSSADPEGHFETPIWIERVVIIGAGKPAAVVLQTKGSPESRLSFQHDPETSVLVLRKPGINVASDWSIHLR
Sequence (P14314 15-528 partner): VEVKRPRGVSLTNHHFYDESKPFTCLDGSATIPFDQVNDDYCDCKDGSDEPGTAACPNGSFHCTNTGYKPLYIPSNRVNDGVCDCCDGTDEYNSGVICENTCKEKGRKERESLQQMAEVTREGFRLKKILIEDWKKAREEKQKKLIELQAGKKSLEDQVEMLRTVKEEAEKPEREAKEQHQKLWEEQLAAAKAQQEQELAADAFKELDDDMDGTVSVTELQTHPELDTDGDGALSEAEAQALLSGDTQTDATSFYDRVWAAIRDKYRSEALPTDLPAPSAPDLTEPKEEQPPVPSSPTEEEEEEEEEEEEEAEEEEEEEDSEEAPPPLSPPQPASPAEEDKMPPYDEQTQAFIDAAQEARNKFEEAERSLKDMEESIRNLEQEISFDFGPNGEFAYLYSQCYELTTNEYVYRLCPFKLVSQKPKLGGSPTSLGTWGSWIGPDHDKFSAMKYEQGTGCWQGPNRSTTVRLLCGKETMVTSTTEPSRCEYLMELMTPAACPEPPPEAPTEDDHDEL
Assay: fluorogenic substrate (4MU-α-D-glucopyranoside) assay on GANAB in Pompe fibroblast homogenates;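 also: inhibitor preincubated 30 min at 37 °C with homogenate, then GANAB activity read after 2 h with 3.0 mM fluorogenic substrate in McIlvaine buffer containing 0.1% BSA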
Format: biochemical
Settings: Table S2; 4-MU alpha glucoside substrate; read-out: IC50 on GANAB
observable: IC50 (µM)
Numbers only; they are read as µM.

[ask] Consider the compound OC[C@@H]1[C@@H](O)[C@H](O)[C@@H](O)CN1CCCCCOCc1ccc(-c2ccc3c(c2)OCCCO3)cc1 and give its measured IC50.
[reply] 1.2

[ask] Consider the compound OC[C@@H]1[C@@H](O)[C@H](O)[C@@H](O)CN1CCCCCOCc1ccc(-c2cccc(F)c2)cc1 and give its measured IC50.
[reply] 1

[ask] Consider the compound OC[C@@H]1[C@@H](O)[C@H](O)[C@@H](O)CN1CCCCCOCCC12CC3CC(CC(C3)C1)C2 and give its measured IC50.
[reply] 1.6

[ask] Consider the compound O=C(CCCCCN1C[C@H](O)[C@@H](O)[C@H](O)[C@H]1CO)NC12CC3CC(CC(C3)C1)C2 and give its measured IC50.
[reply] 2.4

[ask] Consider the compound OC[C@@H]1[C@@H](O)[C@H](O)[C@@H](O)CN1CCCCCOCc1ccc(-c2ccc(C(F)(F)F)cc2)cc1 and give its measured IC50.
[reply] 1.7

[ask] Consider the compound OC[C@@H]1[C@@H](O)[C@H](O)[C@@H](O)CN1CCCCCOCc1ccc(-c2ccccc2)cc1 [Compound 6] and give its measured IC50.
[reply] 8.3

[ask] Consider the compound OC[C@@H]1[C@@H](O)[C@H](O)[C@@H](O)CN1CCCCOCCC12CC3CC(CC(C3)C1)C2 and give its measured IC50.
[reply] 2.1

[ask] Consider the compound CC(C)=CCOCCCCCN1C[C@H](O)[C@@H](O)[C@H](O)[C@H]1CO and give its measured IC50.
[reply] 9.9

[ask] Consider the compound OC[C@@H]1[C@@H](O)[C@H](O)[C@@H](O)CN1CCCCCOCC1CCCCC1 and give its measured IC50.
[reply] 1.84

[ask] Consider the compound OC[C@@H]1[C@@H](O)[C@H](O)[C@@H](O)CN1CCCCCOCc1ccc(-c2ccnc(F)c2)cc1 and give its measured IC50.
[reply] 1.6

[ask] Consider the compound CCCCCCCN1C[C@H](O)[C@@H](O)[C@H](O)[C@H]1CO and give its measured IC50.
[reply] 60

[ask] Consider the compound COc1ccccc1-c1ccc(COCCCCCN2C[C@H](O)[C@@H](O)[C@H](O)[C@H]2CO)cc1 and give its measured IC50.
[reply] 1.3

[ask] Consider the compound CCCCCCOCCCCCN1C[C@H](O)[C@@H](O)[C@H](O)[C@H]1CO and give its measured IC50.
[reply] 14.8

[ask] Consider the compound OC[C@@H]1[C@@H](O)[C@H](O)[C@@H](O)CN1CCCCCOCc1ccc(-c2ccc3c(c2)OCO3)cc1 and give its measured IC50.
[reply] 4.7

[ask] Consider the compound OC[C@@H]1[C@@H](O)[C@H](O)[C@@H](O)CN1CCCCCOCc1ccccc1 and give its measured IC50.
[reply] 9.32

[ask] Consider the compound CCCCCCCCCN1C[C@H](O)[C@@H](O)[C@H](O)[C@H]1CO and give its measured IC50.
[reply] 9
